Target: IRAK4 (Homo sapiens)
Construct: endogenous in cells; host or cells: OCI-LY10
Test: IRAK4 MSD Degradation in OCI-LY10
Format: cell-based
Details: OCI-LY10 cells, Meso Scale Discovery, incubated 4 to 24 hours
Measured DC50 by item

Task item: Param item = Cn1c(=O)n(C2CCC(=O)NC2=O)c2cccc(N3CCCN(C[C@H]4CC[C@H](n5cc6cc(NC(=O)c7cccc(C(F)(F)F)n7)ccc6n5)CC4)CC3)c21 (some centres unmarked) ; retrieve measured DC50.
Reply: 10 to 50 nM

Task item: Param item = COc1ccc2c(c1C1CCN(C[C@H]3CC[C@H](n4cc5cc(NC(=O)c6cccc(C(F)(F)F)n6)c(C#N)cc5n4)CC3)CC1)n(C)c(=O)n2C1CCC(=O)NC1=O (some centres unmarked) ; retrieve measured DC50.
Reply: < 10 nM

Task item: Param item = COc1cc(NC(=O)c2cccc(C(F)(F)F)n2)cc2cn([C@H]3CC[C@H](CN4CCN(c5cccc6c(N7CCC(=O)NC7=O)cncc56)CC4)CC3)nc12 ; retrieve measured DC50.
Reply: < 10 nM

Task item: Param item = COc1ccc2c(c1C1CCN(C[C@H]3C[C@H](n4cc5cc(NC(=O)c6cccc(C(F)(F)F)n6)c(Cl)cc5n4)C3)CC1)n(C)c(=O)n2C1CCC(=O)NC1=O (some centres unmarked) ; retrieve measured DC50.
Reply: 10 to 50 nM

Task item: Param item = Cc1cccc(C(=O)Nc2cc3sc([C@H]4CC[C@H](CN5C[C@@H]6C[C@H]5CN6CCCNc5cccc6c5C(=O)N(C5CCC(=O)NC5=O)C6=O)CC4)nc3cc2C(C)(C)O)n1 (some centres unmarked) ; retrieve measured DC50.
Reply: 10 to 50 nM

Task item: Param item = COc1cc2nn(CCN(C)C3CCN(c4cccc5c4n(C)c(=O)n5C4CCC(=O)NC4=O)CC3)cc2cc1NC(=O)c1cccc(C(F)(F)F)n1 (centres unmarked) ; retrieve measured DC50.
Reply: > 200 nM

----------
Biological target: IRAK4 (Homo sapiens, UniProt Q9NWZ3)
Construct: endogenous in cells; host or cells: OCI-LY10
Sequence (Q9NWZ3 1-460): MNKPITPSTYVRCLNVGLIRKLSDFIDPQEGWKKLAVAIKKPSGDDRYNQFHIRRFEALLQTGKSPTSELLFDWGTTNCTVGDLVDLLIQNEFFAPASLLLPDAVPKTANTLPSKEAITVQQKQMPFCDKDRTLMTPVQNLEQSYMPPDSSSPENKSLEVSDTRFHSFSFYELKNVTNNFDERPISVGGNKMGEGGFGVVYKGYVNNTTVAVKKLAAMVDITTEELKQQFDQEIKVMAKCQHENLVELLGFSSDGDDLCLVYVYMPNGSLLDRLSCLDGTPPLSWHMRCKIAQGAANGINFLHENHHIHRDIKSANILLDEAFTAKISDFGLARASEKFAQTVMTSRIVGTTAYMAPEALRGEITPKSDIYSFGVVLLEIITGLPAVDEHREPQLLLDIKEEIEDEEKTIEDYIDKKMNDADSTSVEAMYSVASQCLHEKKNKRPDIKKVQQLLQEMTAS
Experiment: IRAK4 MSD Degradation in OCI-LY10
Format: cell-based
Conditions: OCI-LY10 cells, Meso Scale Discovery, incubated 4 to 24 hours
metric: DC50

Task item: Param item = Cc1ccc2c(c1C1CCN(C[C@H]3CC[C@H](n4cc5cc(NC(=O)c6cccc(C(F)(F)F)n6)c(F)cc5n4)CC3)CC1)n(C)c(=O)n2C1CCC(=O)NC1=O (some centres unmarked) ; retrieve measured DC50.
Reply: 10 to 50 nM

Task item: Param item = COc1cc2nn([C@H]3CC[C@H](CN(C)C4CCN(c5cccc6c(N7CCC(=O)NC7=O)cncc56)CC4)CC3)cc2cc1NC(=O)c1cccc(C(F)(F)F)n1 ; retrieve measured DC50.
Reply: < 10 nM

Task item: Param item = Cn1c(=O)n(C2CCC(=O)NC2=O)c2cccc(C3CC4CCC(C3)N4C[C@H]3CC[C@H](n4cc5cc(NC(=O)c6cccc(C(F)(F)F)n6)ccc5n4)CC3)c21 (single isomer, unassigned) ; retrieve measured DC50.
Reply: < 10 nM

Task item: Param item = Cn1c(=O)n(C2CCC(=O)NC2=O)c2ccc(F)c(C3CCN(C[C@H]4C[C@H](n5cc6cc(NC(=O)c7cccc(C(F)(F)F)n7)ccc6n5)C4)CC3)c21 (some centres unmarked) ; retrieve measured DC50.
Reply: < 10 nM

Task item: Param item = CN(C[C@H]1CC[C@H](n2cc3cc(NC(=O)c4cccc(C(F)(F)F)n4)c(C#N)cc3n2)CC1)C1CCN(c2cccc3c2n(C)c(=O)n3C2CCC(=O)NC2=O)CC1 (some centres unmarked) ; retrieve measured DC50.
Reply: < 10 nM

Task item: Param item = COc1cc2nn([C@H]3CC[C@H](CN4CCN(c5ccc(N6CCC(=O)NC6=O)cc5)CC4)CC3)cc2cc1NC(=O)c1cccc(C(F)(F)F)n1 ; retrieve measured DC50.
Reply: > 200 nM

Task item: Param item = COc1cc2nn([C@H]3CC[C@H](CN4C[C@H]5C[C@@H]4CN5c4cccc5c4n(C)c(=O)n5C4CCC(=O)NC4=O)CC3)cc2cc1NC(=O)c1cncc(C#N)c1 (some centres unmarked) ; retrieve measured DC50.
Reply: > 200 nM

Task item: Param item = CC(C)Nc1cc(-n2ccc3cc(F)cnc32)ncc1C(=O)N[C@H]1CC[C@H](CN2CCN(c3ccc4c(c3)n(C)c(=O)n4C3CCC(=O)NC3=O)CC2)CC1 (some centres unmarked) ; retrieve measured DC50.
Reply: > 200 nM

Task item: Param item = CN(CCn1cc2cc(NC(=O)c3cccc(C(F)(F)F)n3)c(F)cc2n1)C1CCN(c2cccc3c2n(C)c(=O)n3C2CCC(=O)NC2=O)CC1 (centres unmarked) ; retrieve measured DC50.
Reply: > 200 nM

Task item: Param item = Cc1cc2nn([C@H]3CC[C@H](CN4CCN(c5cccc6c5n(C)c(=O)n6[C@H]5CCC(=O)NC5=O)CC4)CC3)cc2cc1NC(=O)c1cccc(C(F)(F)F)n1 ; retrieve measured DC50.
Reply: 10 to 50 nM

Task item: Param item = CC(C)(O)c1cc2nn([C@H]3CC[C@H](CN4CCN(c5cccc6c(N7CCC(=O)NC7=O)cncc56)CC4)CC3)cc2cc1NC(=O)c1cccc(C(F)(F)F)n1 ; retrieve measured DC50.
Reply: < 10 nM
